Each recorded value in this set is attributed to ChEMBL document CHEMBL4513216.

# Tested on: Plasmodium berghei
# testDetails: Screen against P. berghei liver stage (PbLuc), transformed with Luciferase, at 10uM
# Format: functional, HepG2
# testContext: tested at 10 uM
Out of some 69,000 compounds screened, about 8,600 (12%) showed an effect of 50% or more. The sample as a whole holds a higher share of strong results than the screen did.
Rule: Condition met for INHIBITION not less than 30%, Condition not met for anything less.

Would you say CC(C)N1CCCC(CNC(=O)CN(C)S(=O)(=O)c2ccccc2)C1 (stereo unspecified) shows INHIBITION at minimum 30%?
Condition not met

Hi, just wondering whether COC(=O)c1ccc(S(=O)(=O)NCc2cccnc2N(C)C)cc1 shows INHIBITION of 30% or higher.
Condition met

Is INHIBITION for Cc1cc(C)c(OCC(=O)NS(=O)(=O)c2c(C)noc2C)c(C)c1 at or above 30%?
Condition met

###

Recorded INHIBITION by entry
# Test system: Plasmodium berghei
# testDetails: Screen against P. berghei liver stage (PbLuc), transformed with Luciferase, at 10uM
# Assay type: functional, HepG2
# testContext: tested at 10 uM
The whole screen tested about 69,000 compounds, of which about 8,600 (12%) showed an effect of 50% or more. The list comes from a sample in which strong results are over-represented; it also holds close analogues and randomly drawn compounds.
Express your answer as a number followed by its unit.

compound | assayEndpoint | val
Cc1nccn1-c1ncccc1NC(=O)CCOCC(C)C | INHIBITION | 4.66%
COCCNC(=O)c1nnc2ccc(N3CCOCC3)cc2n1 | INHIBITION | 54%
CCNC(=O)c1nnc2ccc(N3CCOCC3)cc2n1 | INHIBITION | 30%
CCS(=O)(=O)c1ccc(N2CCC(NC(=O)CCC(C)C)CC2)cc1 | INHIBITION | 42.6%

The compound CS(=O)(=O)N[C@@H]1COC[C@@H]2CN(Cc3ccco3)C[C@@H]21 , tested on Plasmodium berghei, showed INHIBITION of 18.4%

Measured on Plasmodium berghei, Cc1nn(C)c(C)c1CCNC(C)c1ccc(-n2ccnc2C)cc1 (configuration not stated) has a documented INHIBITION of 87.6%

For CC(Cn1ccnc1)NC(=O)NCCc1ccccn1 (configuration not stated) on Plasmodium berghei, measured INHIBITION was 46.5%

###

# System: Plasmodium berghei
# testDetails: Screen against P. berghei liver stage (PbLuc), transformed with Luciferase, at 10uM
# Assay type: functional, HepG2
# testContext: tested at 10 uM
About 8,600 (12%) of roughly 69,000 compounds showed an effect of 50% or more. The sample holds strong results, similar compounds and a random draw of the others, so the mix is not that of the screen.
INHIBITION values by entry
API: value field is a number in %; no unit string.

Lab note: CCNC(=O)c1cn2cc(-c3ccccc3Cl)n(CC3CC3)c(=O)c2n1 gave INHIBITION of 73.5

Field INHIBITION (entry O=C(c1cccnc1)N1CCC2(CC1)CC(Oc1ccccc1)CO2 (centres undefined) ) reads 34.4

Value of measured INHIBITION for the entry CCOC(=O)N1CCN(C(=O)c2cc(-c3ccc(C)cc3)on2)CC1 : 23.4

// INHIBITION value for CC(=O)N1CCC2(CC1)CC(Oc1ccccc1)CO2 (centres undefined) : 33.5

Measured INHIBITION of O=S(=O)(CC1CCCCO1)Nc1cc(F)ccc1-n1cccn1 (centres undefined) : 25.7

Data point: CCc1c(C)nc(N)nc1NCCSCc1[nH]cnc1C ; INHIBITION = 69.4

The measured INHIBITION associated with COC1COC2(CCN(C(=O)c3cocn3)CC2)C1 (centres undefined) reads 39.4
